measurementTarget: UniProt:Q9HAZ1
methodDescription: NanoBRET target engagement intracellular kinase assay
Type: cell-based
Parameters: host or cells: HEK293 (HEK293T cultured)
cond: selectivity vs STK33
Can you tell me Fold NanoBRET IC50 CLK4 over STK33 (in parentheses) for the items I'm about to list?
Numeric answer only, unit X assumed.

Query: Quick one: Fold NanoBRET IC50 CLK4 over STK33 (in parentheses) for O=C(c1ccc2[nH]nc(C#Cc3ccccc3-c3ccccc3)c2c1)N1CC2(CCCNC2)C1 [CDD-2807] ?
Response: 9

Query: Quick one: Fold NanoBRET IC50 CLK4 over STK33 (in parentheses) for CNC(=O)C1CCN(C2CCN(C(=O)c3ccc4[nH]nc(C#Cc5ccccc5-c5ccccc5)c4c3)C2)CC1 (centres unmarked) [CDD-2110] ?
Response: 14

Query: Endpoint output: Fold NanoBRET IC50 CLK4 over STK33 (in parentheses) of CN(C)[C@@H]1CCN(C(=O)c2ccc3[nH]nc(C#Cc4ccccc4-c4ccccc4)c3c2)C1 [CDD-2211] . Value?
Response: 37

Query: Which Fold NanoBRET IC50 CLK4 over STK33 (in parentheses) value is on record for CN(C)[C@H]1CCN(C(=O)c2ccc3[nH]nc(C#Cc4ccccc4-c4ccccc4)c3c2)C1 [CDD-2212] ?
Response: 6

Query: What value of measured Fold NanoBRET IC50 CLK4 over STK33 (in parentheses) is listed for CNC(=O)CCC1CCN(C(=O)C2CCN(C3CCN(C(=O)c4ccc5[nH]nc(C#Cc6ccccc6-c6ccccc6)c5c4)C3)CC2)CC1 (centres unmarked) [CDD-3348] ?
Response: 23

====

methodDescription: Pharmacokinetics (PK) of CDD-2807 in mice
Assay type: in vivo
cond: male, C57BL/6NJ, mouse, po, p.o. administration 50 mg/kg, plasma, read-out: t1/2 (converted)
valueKind: half-life (h)
State the answer as a number, implicitly in h.

Query: Suppose we examine the molecule O=C(c1ccc2[nH]nc(C#Cc3ccccc3-c3ccccc3)c2c1)N1CC2(CCCNC2)C1 ; what half-life value has been reported?
Response: 12.6

====

methodDescription: Pharmacokinetics (PK) of CDD-2807 in mice
Format: in vivo
cond: male, C57BL/6NJ, mouse, po, p.o. administration 50 mg/kg, plasma
valueKind: Tmax (h)
Use h as the unit, but write only the number.

Query: Looking for the measured Tmax of O=C(c1ccc2[nH]nc(C#Cc3ccccc3-c3ccccc3)c2c1)N1CC2(CCCNC2)C1 [CDD-2807] , can you help?
Response: 2.67

====

methodDescription: Pharmacokinetics (PK) of CDD-2807 in mice
Assay type: in vivo
cond: male, C57BL/6NJ, mouse, po, p.o. administration 5 mg/kg, plasma
valueKind: Tmax (h)
Note: unit h is implicit; provide only the numeric part.

Query: Looking for the measured Tmax of O=C(c1ccc2[nH]nc(C#Cc3ccccc3-c3ccccc3)c2c1)N1CC2(CCCNC2)C1 [CDD-2807] , can you help?
Response: 1.03

====

methodDescription: Metabolic stability assay in liver microsomes (HLM)
Assay type: in vitro ADME, human
cond: human, liver microsomes, 2.0 µM, 0.5 mg protein/mL, NADPH; data >60 min is an extrapolated estimate; read-out: Metabolic stability HLM, t1/2
valueKind: half-life at 2 µM (min)
Field format: number, assumed min, no unit text.

Query: Give its half-life at 2 µM value. Item: CN(C)[C@@H]1CCN(C(=O)c2ccc3[nH]nc(C#Cc4ccccc4-c4ccccc4)c3c2)C1 [CDD-2211]
Response: 10

Query: Sample CNC(=O)CCC1CCN(C(=O)C2CCN(C3CCN(C(=O)c4ccc5[nH]nc(C#Cc6ccccc6-c6ccccc6)c5c4)C3)CC2)CC1 (stereo not shown) [CDD-3348] — what was its half-life at 2 µM?
Response: 13

Query: Entry under review: CNC(=O)C1CCN(C2CCN(C(=O)c3ccc4[nH]nc(C#Cc5ccccc5-c5ccccc5)c4c3)C2)CC1 (stereo not shown) [CDD-2110] . Reported half-life at 2 µM?
Response: 10

Query: # query: half-life at 2 µM of entry CN(C)[C@H]1CCN(C(=O)c2ccc3[nH]nc(C#Cc4ccccc4-c4ccccc4)c3c2)C1 [CDD-2212]
Response: 8

====

methodDescription: Pharmacokinetics (PK) of CDD-2807 in mice
Assay type: in vivo
cond: male, C57BL/6NJ, mouse, ip, i.p. injection 25 mg/kg, plasma
valueKind: AUC(0-inf) (µM·h)
Entry rule: numbers only, all in µM·h.

Query: Can you look up the measured AUC(0-inf) of O=C(c1ccc2[nH]nc(C#Cc3ccccc3-c3ccccc3)c2c1)N1CC2(CCCNC2)C1 for me?
Response: 67.7

====

What follows is a collection of Kd values obtained with CLK4 (Homo sapiens, UniProt Q9HAZ1).
Sequence (Q9HAZ1 whole entry): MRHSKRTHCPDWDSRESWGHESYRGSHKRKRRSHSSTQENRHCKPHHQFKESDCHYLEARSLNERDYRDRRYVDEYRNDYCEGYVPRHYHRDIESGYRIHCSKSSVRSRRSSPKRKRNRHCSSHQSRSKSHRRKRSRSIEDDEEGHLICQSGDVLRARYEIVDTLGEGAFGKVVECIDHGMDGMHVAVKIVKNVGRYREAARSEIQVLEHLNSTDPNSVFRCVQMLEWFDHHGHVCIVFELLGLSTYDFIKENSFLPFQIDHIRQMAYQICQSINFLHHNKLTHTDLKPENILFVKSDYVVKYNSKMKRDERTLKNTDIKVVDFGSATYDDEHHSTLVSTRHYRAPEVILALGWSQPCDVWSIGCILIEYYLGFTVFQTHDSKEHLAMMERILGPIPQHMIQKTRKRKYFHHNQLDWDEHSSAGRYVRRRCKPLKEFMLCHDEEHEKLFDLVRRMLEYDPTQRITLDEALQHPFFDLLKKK
API: value field is a number in nM; no unit string.

Query: Look at this molecule and give its reported Kd. CN(C)[C@H]1CCN(C(=O)c2ccc3[nH]nc(C#Cc4ccccc4-c4ccccc4)c3c2)C1 [CDD-2212]
Response: 21.5

Query: Suppose we examine the molecule O=C(c1ccc2[nH]nc(C#Cc3ccccc3-c3ccccc3)c2c1)N1CC2(CCCNC2)C1 [CDD-2807] ; what Kd value has been reported?
Response: 0.9

Query: # get_value(readout='Kd', item= CNC(=O)CCC1CCN(C(=O)C2CCN(C3CCN(C(=O)c4ccc5[nH]nc(C#Cc6ccccc6-c6ccccc6)c5c4)C3)CC2)CC1 (stereo not shown) [CDD-3348] )
Response: 26.2

Query: Looking for the measured Kd of CN(C)[C@@H]1CCN(C(=O)c2ccc3[nH]nc(C#Cc4ccccc4-c4ccccc4)c3c2)C1 [CDD-2211] , can you help?
Response: 2.5

====

methodDescription: Pharmacokinetics (PK) of CDD-2807 in mice
Assay type: in vivo
cond: male, C57BL/6NJ, mouse, po, p.o. administration 50 mg/kg, plasma, read-out: MRT0-∞
valueKind: MRT inf (h)
Numbers only; they are read as h.

Query: Reported MRT inf for O=C(c1ccc2[nH]nc(C#Cc3ccccc3-c3ccccc3)c2c1)N1CC2(CCCNC2)C1 [CDD-2807] : what is it?
Response: 16.5

====

methodDescription: Pharmacokinetics (PK) of CDD-2807 in mice
Assay type: in vivo
cond: male, C57BL/6NJ, mouse, ip, i.p. injection 25 mg/kg, plasma, read-out: t1/2 (converted)
valueKind: half-life (h)
Report only the number, with the unit h understood.

Query: # half-life lookup, item O=C(c1ccc2[nH]nc(C#Cc3ccccc3-c3ccccc3)c2c1)N1CC2(CCCNC2)C1
Response: 11.3

====

measurementTarget: UniProtKB P07949
Sequence (P07949 29-1114): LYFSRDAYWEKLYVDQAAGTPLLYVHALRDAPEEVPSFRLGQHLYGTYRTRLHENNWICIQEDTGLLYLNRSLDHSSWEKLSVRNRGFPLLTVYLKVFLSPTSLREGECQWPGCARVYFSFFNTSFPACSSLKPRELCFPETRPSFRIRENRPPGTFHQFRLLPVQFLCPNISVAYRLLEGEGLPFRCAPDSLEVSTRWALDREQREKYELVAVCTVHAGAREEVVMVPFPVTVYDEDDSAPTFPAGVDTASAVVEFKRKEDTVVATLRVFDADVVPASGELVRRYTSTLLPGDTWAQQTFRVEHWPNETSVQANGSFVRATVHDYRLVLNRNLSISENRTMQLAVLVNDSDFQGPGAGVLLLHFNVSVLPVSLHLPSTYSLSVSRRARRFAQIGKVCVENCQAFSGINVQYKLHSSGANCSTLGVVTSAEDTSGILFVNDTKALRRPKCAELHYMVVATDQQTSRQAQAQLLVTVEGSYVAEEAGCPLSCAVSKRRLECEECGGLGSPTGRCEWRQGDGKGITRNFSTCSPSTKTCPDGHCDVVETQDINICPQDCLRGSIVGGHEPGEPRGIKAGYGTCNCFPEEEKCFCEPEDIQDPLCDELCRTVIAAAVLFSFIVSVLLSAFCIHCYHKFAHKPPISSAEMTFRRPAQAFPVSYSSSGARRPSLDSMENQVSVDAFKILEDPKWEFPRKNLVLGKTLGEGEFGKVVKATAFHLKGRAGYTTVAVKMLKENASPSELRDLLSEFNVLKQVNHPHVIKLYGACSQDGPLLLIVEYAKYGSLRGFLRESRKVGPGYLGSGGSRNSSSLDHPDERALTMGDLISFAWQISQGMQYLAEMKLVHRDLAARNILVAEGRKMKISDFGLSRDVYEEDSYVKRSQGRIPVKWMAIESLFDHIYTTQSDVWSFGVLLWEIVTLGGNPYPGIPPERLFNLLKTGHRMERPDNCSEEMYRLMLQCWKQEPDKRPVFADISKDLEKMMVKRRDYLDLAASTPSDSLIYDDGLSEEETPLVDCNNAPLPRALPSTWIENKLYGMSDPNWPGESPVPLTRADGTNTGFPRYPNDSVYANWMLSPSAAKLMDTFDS
methodDescription: NanoBRET target engagement intracellular kinase assay
Assay type: cell-based
Design: host or cells: HEK293 (HEK293T cultured)
cond: selectivity vs STK33
Description: NanoBRET Target Engagement intracellular kinase assay. HEK293T cells were cultured in […] The cell line underwent authentication by short tandem repeat (STR) profiling at Cytogenetics and Cell Authentication Core (CCAC) at MD Anderson Cancer Center. […] 0.4 nM at a fixed tracer concentration. Staurosporine was measured in parallel as a positive control. […]
The threshold is inclusive: Fold NanoBRET IC50 RET over STK33 (in parentheses) of exactly 20 X counts as TRUE; values below receive FALSE.

Query: Given CN(C)[C@H]1CCN(C(=O)c2ccc3[nH]nc(C#Cc4ccccc4-c4ccccc4)c3c2)C1 , state whether its Fold NanoBRET IC50 RET over STK33 (in parentheses) is at least 20 X.
Response: FALSE

Query: Quick check, Fold NanoBRET IC50 RET over STK33 (in parentheses) >= 20 X? O=C(c1ccc2[nH]nc(C#Cc3ccccc3-c3ccccc3)c2c1)N1CC2(CCCNC2)C1
Response: TRUE

Query: Hi, just wondering whether CN(C)[C@@H]1CCN(C(=O)c2ccc3[nH]nc(C#Cc4ccccc4-c4ccccc4)c3c2)C1 shows Fold NanoBRET IC50 RET over STK33 (in parentheses) of 20 X or higher.
Response: FALSE

Query: Textbook exercise: given the entry CNC(=O)CCC1CCN(C(=O)C2CCN(C3CCN(C(=O)c4ccc5[nH]nc(C#Cc6ccccc6-c6ccccc6)c5c4)C3)CC2)CC1 (centres unmarked) , state whether its Fold NanoBRET IC50 RET over STK33 (in parentheses) is greater than or equal to 20 X.
Response: TRUE

====

methodDescription: CDD-2807 concentrations in mouse brain, liver, lung, and testis
Format: in vivo, mice
cond: male, C57/129 hybrid, mouse, testis, ip; protocol 1 (15 mg/kg i.p. twice per day), day 45
valueKind: concentration at 45 day
Answer format reminder: number followed by unit.

Query: Reported concentration at 45 day for O=C(c1ccc2[nH]nc(C#Cc3ccccc3-c3ccccc3)c2c1)N1CC2(CCCNC2)C1 : what is it?
Response: 89600 ng/g

====

methodDescription: Metabolic stability assay in liver microsomes (MLM)
Format: in vitro ADME, mouse
cond: mouse, liver microsomes, NADPH with UDP-GA (2.5 mM), alamethicin; read-out: MLM, t1/2, liver microsomes with glucuronidation
valueKind: half-life at 2 µM (min)
# unit: min | format: bare number

Query: Give its half-life at 2 µM value. Item: O=C(c1ccc2[nH]nc(C#Cc3ccccc3-c3ccccc3)c2c1)N1CC2(CCCNC2)C1
Response: 50
